Reported Emax values for the following molecules.
# tested on: Full-length glucokinase (beta cell isoform) (Homo sapiens, UniProt P35557)
# Construct: Full-length glucokinase (beta cell isoform) was His-tagged at N-terminus; His tag (N); made in house
# experimental protocol: Glucokinase biochemical assay (PK/LDH-coupled, NADH depletion at 340 nm): % activation, EC50, % max activation
# assay conditions: 5 mM glucose; fitted maximum activation; read-out: % Max Activation
Output spec: scalar in %, unitless text.

A selection of reference data follows.
- Cc1cc2c(Oc3ccc(S(C)(=O)=O)cc3)cc(C(=O)Nc3ccc4c(n3)CCC4)cc2o1: 71
- Cn1ccc(NC(=O)c2cc(Oc3ccc(S(C)(=O)=O)cc3)c3c(c2)OC(CF)C3)n1 (centres unmarked): 160
- Cc1cc2c(Oc3ccc(S(C)(=O)=O)cc3)cc(C(=O)Nc3ccc(C#N)cn3)cc2o1: 81
- Cn1ccc(NC(=O)c2cc(Oc3ccc(S(C)(=O)=O)cc3)c3c(c2)OC(C)(CO)C3)n1 (centres unmarked): 184
- Cc1cc2c(Oc3ccc(S(=O)(=O)N4CCC4)cc3)cc(C(=O)Nc3cnc(N(C)C)cn3)cc2o1: 107
- COCC1Cc2c(Oc3ccc(C(=O)N4CCC4)cc3)cc(C(=O)Nc3ccn(C)n3)cc2O1 (centres unmarked): 98
- Cn1ccc(NC(=O)c2cc(Oc3ccc(S(C)(=O)=O)cc3)c3cc(C(F)F)oc3c2)n1: 235
- Cn1ccc(NC(=O)c2cc(Oc3ccc(C(=O)Nc4ccn(C)n4)c(F)c3)c3c(c2)OC(C)(C)C3)n1: 141

Reported Emax, molecule `Cc1ccc(NC(=O)c2cc(Oc3ccc(S(=O)(=O)N(C)C)c(F)c3)c3cc(C)oc3c2)nc1` : ____
89

====

# tested on: Full-length glucokinase (beta cell isoform) (Homo sapiens, UniProt P35557)
# Construct: Full-length glucokinase (beta cell isoform) was His-tagged at N-terminus; His tag (N); made in house
# experimental protocol: Glucokinase biochemical assay (PK/LDH-coupled, NADH depletion at 340 nm): % activation, EC50, % max activation
# assay conditions: 10 uM compound; 5 mM glucose; % Activation=(Va/Vo−1)×100; read-out: % Activation at 10 uM
Reported activation at 10 µM values for the following compounds.
Output spec: scalar in %, unitless text.

A selection of reference data follows.
- Cc1ccc(NC(=O)c2cc(Oc3ccc(S(C)(=O)=O)cc3)c3c(c2)OC(C)(CO)C3)nc1 (stereo not shown) [Example 230]: 91.8
- Cn1ccc(NC(=O)c2cc(Oc3cc(F)ccc3S(C)(=O)=O)c3c(c2)OC(C)(CO)C3)n1 (stereo not shown) [Example 235]: 69.2

Reported activation at 10 µM, compound Cn1ccc(NC(=O)c2cc(Oc3ccc(C(=O)N4CCC4)cc3)c3c(c2)OC(C(F)F)C3)n1 (stereo not shown) [Example 226] : ____
112

Reported activation at 10 µM, compound Cn1ccc(NC(=O)c2cc(Oc3ccc(S(C)(=O)=O)cc3)c3c(c2)OC(C)(C)C3)n1 [Example 16] : ____
213

====

# tested on: Full-length glucokinase (beta cell isoform) (Homo sapiens)
# Construct: Full-length glucokinase (beta cell isoform) was His-tagged at N-terminus; His tag (N); made in house
# Sequence (P35557 1-465): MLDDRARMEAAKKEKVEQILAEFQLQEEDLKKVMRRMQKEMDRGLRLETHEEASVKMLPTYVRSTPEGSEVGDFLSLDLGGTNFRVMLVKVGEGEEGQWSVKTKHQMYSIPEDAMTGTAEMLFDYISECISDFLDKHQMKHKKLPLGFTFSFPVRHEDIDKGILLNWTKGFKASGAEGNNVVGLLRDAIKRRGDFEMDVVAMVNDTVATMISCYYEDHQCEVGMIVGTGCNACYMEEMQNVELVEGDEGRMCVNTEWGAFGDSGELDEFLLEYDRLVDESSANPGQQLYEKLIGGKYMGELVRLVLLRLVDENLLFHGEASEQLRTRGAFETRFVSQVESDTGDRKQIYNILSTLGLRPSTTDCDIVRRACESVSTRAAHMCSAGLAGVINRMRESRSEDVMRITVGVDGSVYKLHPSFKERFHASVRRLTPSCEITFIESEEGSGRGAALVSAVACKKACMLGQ
# experimental protocol: Glucokinase biochemical assay (PK/LDH-coupled, NADH depletion at 340 nm): % activation, EC50, % max activation
# assay conditions: 5 mM glucose; GK activation; read-out: EC50
# Procedure: Full-length glucokinase (beta cell isoform) was His-tagged at N-terminus and purified by a Ni column followed by size exclusion chromatography. Glucose was obtained from Calbiochem, and other reagents were from Sigma. […] Glucokinase was added to the buffer mixture to initiate the reaction in the presence and absence of compound. Reaction was monitored by absorbance at 340nm due to the depletion of NADH. The initial reaction velocity was measured by the slope of a linear time course of 200-900 sec. […]
reported endpoint: EC50

* Cn1ccc(NC(=O)c2cc(Oc3ccc(S(C)(=O)=O)cc3)c3sccc3c2)n1 [Example 364] | > 10 µM
* Cc1cc2c(OC3CN(S(C)(=O)=O)C3)cc(C(=O)Nc3ccn(C)n3)cc2o1 [Example 327] | > 10 µM

Reported EC50, molecule Cc1cc2c(Oc3ccc(S(C)(=O)=O)cn3)cc(C(=O)Nc3ccn(C)n3)cc2o1 [Example 283] : ____
> 10 µM
